system: chickweed (Stellaria media); assay: Test B postemergence plant response; assay type: in vivo; settings: Postemergence, 250 g ai/ha; scale 0 to 100 (0 no effect, 100 complete control)
Recorded Plant response rating, Chickweed by entry

{"columns": ["molecule", "Plant response rating, Chickweed"],
 "data": [
  ["COCCn1c(-c2cc(F)cc(F)c2)ncc(C(=O)C2=C(O)CCCC2=O)c1=O", 100],
  ["CCCCCn1c(-c2ccccc2)ncc(C(=O)C2=C(O)CCCC2=O)c1=O", 98],
  ["COCCn1c(-c2ccccc2)ncc(C(=O)C2=C(O)CCCC2=O)c1=O", 98],
  ["Cn1c(-c2ccccc2)ncc(C(=O)C2=C(O)CCCC2=O)c1=O", 90],
  ["O=C1CCCC(O)=C1C(=O)c1cnc(-c2ccccc2)n(CC2CCCO2)c1=O (centres unmarked)", 100]
]}

----------
Measured Pigweed plant response rating (0 to 100 scale), listed per entry.
system: pigweed (Amaranthus retroflexus); test: Test B pre-/postemergence plant response; type: in vivo; settings: 62 g ai/ha, postemergence; 0 is no effect, 100 is complete control; 13 to 15 days
measured.parameter: Pigweed plant response rating (0 to 100 scale)

{"columns": ["smiles.record", "reported.result"],
 "data": [
  ["O=C1CCCC(O)=C1C(=O)c1cnc(-c2ccccc2)n(C2CCCC2)c1=O", 95],
  ["CCCn1c(-c2cc(F)cc(F)c2)ncc(C(=O)C2=C(O)CCCC2=O)c1=O", 98],
  ["COCCCn1c(-c2cccc(Br)c2)ncc(C(=O)C2=C(O)CCCC2=O)c1=O", 70],
  ["CCCCn1c(-c2ccccc2)ncc(C(=O)C2=C(O)CCCC2=O)c1=O", 100],
  ["O=C1CCCC(OC(=O)C2CC2)=C1C(=O)c1cnc(-c2ccccc2)n(-c2ccccc2)c1=O", 100],
  ["CCCn1c(-c2cccc(C(F)(F)F)c2)ncc(C(=O)C2=C(O)CCCC2=O)c1=O", 100],
  ["COCCCn1c(-c2cccc(C)c2)ncc(C(=O)C2=C(O)CCCC2=O)c1=O", 100],
  ["COCCn1c(-c2cccc(Cl)c2)ncc(C(=O)C2=C(O)CCCC2=O)c1=O", 95]
]}

----------
system: morningglory (Ipomoea coccinea); assay: Test B pre-/postemergence plant response; format: in vivo; conditions: Preemergence, 62 g ai/ha; scale 0 to 100 (0 no effect, 100 complete control)

{"columns": ["molecule", "Plant response rating, Morningglory"],
 "data": [
  ["O=C1CCCC(O)=C1C(=O)c1cnc(-c2ccsc2)n(-c2ccccc2)c1=O [Compound 56]", 0],
  ["O=C1CCCC(O)=C1C(=O)c1cnc(-c2ccccc2)n(CC2CCCO2)c1=O (stereo not drawn) [Compound 59]", 0],
  ["CCCCc1ncc(C(=O)C2=C(O)CCCC2=O)c(=O)n1-c1ccc(C)cc1 [Compound 67]", 15]
]}

----------
system: giant foxtail (Setaria faberii); assay: Test A pre-/postemergence plant response; format: in vivo; conditions: Preemergence, 500 g ai/ha; visual injury, 0 to 100 scale (0 no effect, 100 complete control), approx. ten days

{"columns": ["smiles.record", "measured.on", "Plant response rating, Foxtail, Giant"],
 "data": [
  ["CCCn1c(-c2cccc(C(F)(F)F)c2)ncc(C(=O)C2=C(O)CCCC2=O)c1=O", "giant foxtail (Setaria faberii)", 60],
  ["COCCn1c(-c2cccc(Cl)c2)ncc(C(=O)C2=C(O)CCCC2=O)c1=O", "giant foxtail (Setaria faberii)", 90],
  ["O=C1CCCC(O)=C1C(=O)c1cnc(-c2ccccc2)n(-c2ccc(F)cc2F)c1=O", "giant foxtail (Setaria faberii)", 90],
  ["Cc1ccc(-n2c(-c3ccccc3)ncc(C(=O)C3=C(O)CCCC3=O)c2=O)cc1", "giant foxtail (Setaria faberii)", 90],
  ["Cc1ccc(Cl)cc1-n1c(-c2cccc(Br)c2)ncc(C(=O)C2=C(O)CCCC2=O)c1=O", "giant foxtail (Setaria faberii)", 10],
  ["Cc1cccc(Cl)c1-n1c(-c2ccccc2)ncc(C(=O)C2=C(O)CCCC2=O)c1=O", "giant foxtail (Setaria faberii)", 60],
  ["O=C1CCCC(O)=C1C(=O)c1cnc(-c2ccccc2)n(-c2ccccc2F)c1=O", "giant foxtail (Setaria faberii)", 70],
  ["CCCCCn1c(-c2ccccc2)ncc(C(=O)C2=C(O)CCCC2=O)c1=O", "giant foxtail (Setaria faberii)", 70]
]}
